- test target: CypA^V29L (UniProt P62937 1-165, V29L)
- Sequence (P62937 whole entry V29L): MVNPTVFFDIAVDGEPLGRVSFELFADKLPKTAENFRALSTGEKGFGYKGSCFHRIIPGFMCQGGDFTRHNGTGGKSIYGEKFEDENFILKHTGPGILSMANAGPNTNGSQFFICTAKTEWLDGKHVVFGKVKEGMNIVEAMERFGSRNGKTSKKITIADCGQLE
- protocol text: NMR titration
value kind: pKd
Friendly reminder that pKd comes from taking -log10 of the concentration in mol/L.

Q) Can you share its pKd? I mean this binder: GSFGPDLRAGD [FGP peptide]
A) 4.42
